These measurements were taken from the RNAGym collection of RNA variant scans (doi:10.7554/elife.80360).

B1: HDV Ribozyme (parent)
chain: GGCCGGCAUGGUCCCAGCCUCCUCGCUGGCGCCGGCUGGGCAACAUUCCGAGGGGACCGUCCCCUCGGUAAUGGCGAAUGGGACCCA

- Variants of: B1
- assay_summary: self-cleavage, relative activity (ratio to wild type); higher = more cleavage; co-transcriptional
Answer 0 if self-cleavage is under 0.3, and 1 if it is 0.3 or more.

[
  {
    "variant_key": "U9A C85G",
    "category_label": 1
  },
  {
    "variant_key": "A16U U20A",
    "category_label": 0
  },
  {
    "variant_key": "G74U A77U",
    "category_label": 1
  },
  {
    "variant_key": "C66U C85G",
    "category_label": 1
  },
  {
    "variant_key": "C33U G81U",
    "category_label": 0
  },
  {
    "variant_key": "G59C A70G",
    "category_label": 1
  },
  {
    "variant_key": "C3G U37C",
    "category_label": 1
  },
  {
    "variant_key": "G11A C86A",
    "category_label": 1
  },
  {
    "variant_key": "C18G C85A",
    "category_label": 0
  },
  {
    "variant_key": "C64A G76A",
    "category_label": 1
  },
  {
    "variant_key": "C36A A51C",
    "category_label": 0
  }
]
